System: UACC-257 melanoma
Experiment: NCI tumour cell line growth inhibition, 48 h

- structure: "COc1ccc(-n2c(N)c(C(=O)NCCN3CCOCC3)c3nc4ccccc4nc32)cc1OC"
  studySystem: "UACC-257 melanoma"
  GI50: "34.4 µM"
- structure: "Cn1cccc1-c1cc(-c2ccc(Br)cc2)nc(N)c1C#N"
  studySystem: "UACC-257 melanoma"
  GI50: "> 100 µM"
- structure: "O=C1c2cccnc2-c2nc(-c3ccc([N+](=O)[O-])cc3)cc3c2c1nc1ccccc13"
  studySystem: "UACC-257 melanoma"
  GI50: "2.21 µM"

###

System: A498 renal
Experiment: NCI tumour cell line growth inhibition, 48 h

- molecule: "CCN(CC)P1(=S)Oc2ccc3ccccc3c2-c2c(ccc3ccccc23)O1"
  studySystem: "A498 renal"
  comparativeSign: ">"
  TGI [µM]: 100
- molecule: "CC(O)CN(CCN(CC(C)O)CC(C)O)CC(C)O.O=[N+]([O-])O.[Cu+2] (stereo unspecified)"
  studySystem: "A498 renal"
  comparativeSign: "="
  TGI [µM]: 63.3
- molecule: "O=C(CC1C(=O)Nc2ccccc2S1=O)Nc1cccc(Cl)c1 (stereo unspecified)"
  studySystem: "A498 renal"
  comparativeSign: "="
  TGI [µM]: 47.3
- molecule: "COC(=O)C1Cc2c([nH]c3ccccc23)C=N1 (stereo unspecified)"
  studySystem: "A498 renal"
  comparativeSign: ">"
  TGI [µM]: 100
- molecule: "CSC(=S)N/N=C(\\C)c1ccccn1"
  studySystem: "A498 renal"
  comparativeSign: "="
  TGI [µM]: 6.33
- molecule: "NC12c3c4cccc3Oc3cccc(c31)Oc1cccc(c12)O4"
  studySystem: "A498 renal"
  comparativeSign: ">"
  TGI [µM]: 50
- molecule: "COC(=O)c1c(-c2ccccc2)csc1NC(=O)c1c(-c2ccccc2)noc1C"
  studySystem: "A498 renal"
  comparativeSign: ">"
  TGI [µM]: 100
- molecule: "CN1CCN(c2ccc3nc(-c4ccc(OCCCN5C(=O)c6cccc7cccc(c67)C5=O)cc4)[nH]c3c2)CC1"
  studySystem: "A498 renal"
  comparativeSign: "="
  TGI [µM]: 50.4
- molecule: "NS(=O)(=O)c1ccc(CNC(=S)NC(=O)Nc2ccc(Cl)c(Cl)c2)cc1"
  studySystem: "A498 renal"
  comparativeSign: "="
  TGI [µM]: 33.5
- molecule: "O=C(OCCOCCOC(=O)c1c[nH]cc1-c1ccccc1)c1c[nH]cc1-c1ccccc1"
  studySystem: "A498 renal"
  comparativeSign: "="
  TGI [µM]: 53.1
- molecule: "COc1ccc(N=NN2CCCC2)cc1"
  studySystem: "A498 renal"
  comparativeSign: ">"
  TGI [µM]: 100
